# Measured target: human glucagon receptor (human, UniProt P47871 26-477)
# Sequence (P47871 26-477): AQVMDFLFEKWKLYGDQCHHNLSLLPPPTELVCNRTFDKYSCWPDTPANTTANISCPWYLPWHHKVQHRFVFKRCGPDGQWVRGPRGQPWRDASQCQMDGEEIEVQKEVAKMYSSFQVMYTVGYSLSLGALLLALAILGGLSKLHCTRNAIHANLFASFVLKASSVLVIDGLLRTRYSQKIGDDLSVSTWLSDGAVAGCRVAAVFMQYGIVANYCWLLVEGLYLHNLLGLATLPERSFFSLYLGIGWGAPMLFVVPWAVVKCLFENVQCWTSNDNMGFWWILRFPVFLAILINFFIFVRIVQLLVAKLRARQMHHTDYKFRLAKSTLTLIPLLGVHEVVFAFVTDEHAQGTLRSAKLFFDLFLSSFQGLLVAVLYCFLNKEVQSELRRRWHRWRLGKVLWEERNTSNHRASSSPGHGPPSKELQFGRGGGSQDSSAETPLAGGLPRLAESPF
# Test: cell-based or functional assay
Numbered stars: 1 amine (or outer) side, 2 acyl side, 3 side chain; on linkers, the order of the positions; unused ones are H or OH. Square brackets hold non-standard residues; d marks the D form. Side chains are listed from the residue outwards. Ends that are not written are not given here. γGlu = O=C(O)[C@H](CCC(=O)[*:2])N[*:1]; x53 = not defined here; Aib = CC(C)(N)C(=O)O
Label class 1 when EC50 hGlucagon-R (cAMP) < 10 pM; otherwise class 0.

HXQGTFTSDLSKQKESKAAQDFIEWLKAGGPSSGAPPPS (dSer at 2; K(γE-x70) at 14; C-terminal NH2) [SEQ ID NO: 26]: class 1
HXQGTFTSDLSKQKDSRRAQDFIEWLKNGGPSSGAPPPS (dSer at 2; K(γE-x53) at 14; C-terminal NH(pyrrolidin)) [SEQ ID NO: 98]: class 1
HXQGTFTSDLSKQXESRRAQDFIEWLKAGGPSSGAPPPS (dSer at 2; Dab(γE-x53) at 14; C-terminal NH2) [SEQ ID NO: 72]: class 0
HXQGTFTSDLSKQKDSQAAQDFIEWLKRGGPSSGAPPPS (dSer at 2; K(γE-x53) at 14; C-terminal NH2) [SEQ ID NO: 123]: class 1
HXQGTFTSDLSKQKESQAAQDFIEWLKAGGPSSGAPPPS (dSer at 2; K(γE-x70) at 14; C-terminal NH2) [SEQ ID NO: 40]: class 1

Task item: Given the entry HXQGTFTSDLSKQKESXAAQLFIEWLKAGGPSSGAPPPS (dSer at 2; K(GABA-x70) at 14; Aib at 17; C-terminal NH2) [SEQ ID NO: 131] , would its reported EC50 hGlucagon-R (cAMP) be below 10 pM?
Reply: class 0

Task item: Find out if reported EC50 hGlucagon-R (cAMP) for H[Aib]HGTFTSDLSKQK([γGlu-γGlu-x53])DEEAARLFIEWLKAGGPSSGAPPPS-NH2 (reading uncertain) [SEQ ID NO: 227] is less than 10 pM
Reply: class 1

Task item: EC50 hGlucagon-R (cAMP) strictly < 10 pM for this binder? H[Aib]QGTFTSDLSKQK(x53)ESRRAQDFIEWLKAGGPSSGAPPPS-NH2 (reading uncertain) [SEQ ID NO: 5]
Reply: class 0

Task item: Check if EC50 hGlucagon-R (cAMP) falls below 10 pM for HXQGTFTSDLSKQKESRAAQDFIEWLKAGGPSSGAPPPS (dSer at 2; K(GABA-x70) at 14; C-terminal NH2) [SEQ ID NO: 53] .
Reply: class 1

Task item: Input HXQGTFTSDLSKQKESRRAQLFIEWLKAGGPSSGAPPPSK (dSer at 2; K(γE-x53) at 14; K(γE-x53) at 40; C-terminal NH2) [SEQ ID NO: 6] ; condition: EC50 hGlucagon-R (cAMP) strictly below 10 pM. Does it hold?
Reply: class 0

Task item: Identify whether the binder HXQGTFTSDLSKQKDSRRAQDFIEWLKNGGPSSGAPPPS (dSer at 2; K(γE-x53) at 14; C-terminal NH(CH2-CF3)) [SEQ ID NO: 103] records EC50 hGlucagon-R (cAMP) below 10 pM.
Reply: class 1

Task item: Does the reported EC50 hGlucagon-R (cAMP) of HXQGTFTSDLSKQKDSQAAQDFIEWLKNTGPSSGAPPPS (dSer at 2; K(γE-x53) at 14; C-terminal NH2) [SEQ ID NO: 86] stay below 10 pM?
Reply: class 1
